Data provenance is patent US20250134907A1.

- target.of.assay: RXFP2 (Homo sapiens)
- Construct: expressed in transfected cells
- test.method.notes: Luciferase cAMP assay in HEK-CRE-Luc-RXFP2 cells
- Format: cell-based
- conditions: 3 h treatment, 25 μM-[…]
test.readout: pEC50
In simple prose, pEC50 is minus the logarithm base ten of a concentration in moles per litre.

The recorded pEC50 for entry O=C1Nc2ccc(-c3cccc(C(F)(F)F)c3)cc2C(=O)N2CCN(C(=O)COc3ccc(OC(F)(F)F)cc3Br)C[C@@H]12 equals 7.23

====

- test.method.notes: Pharmacokinetic study in female mice (plasma, liver, bone)
- Type: in vivo, female C57/BL6 mice
- conditions: female, C57/BL6, mouse; plasma; PO 10 mg/kg, one administration
test.readout: Tmax (h)
The reply should contain only the number, in h.

The recorded Tmax for entry O=C1Nc2ccc(-c3cc(C(F)(F)F)cc(C(F)(F)F)c3)cc2C(=O)N2CCN(C(=O)COc3ccc(OC(F)(F)F)cc3I)C[C@@H]12 equals 1

====

- target.of.assay: RXFP2 (Homo sapiens)
- Construct: expressed in transfected cells
- test.method.notes: HTRF cAMP assay in HEK293T cells stably expressing RXFP2 (HEK-RXFP2)
- Type: cell-based
- conditions: condition (c): 7,500 cells/well, IBMX omitted; normalized to 100 nM INSL3 cAMP response
- Procedure: Compound efficacy and EC50 were determined by measuring cAMP induction in vitro. HEK293T cells stably expressing RXFP2 (HEK-RXFP2) produce cAMP when RXFP2 is activated, which can be measured in an antibody-based immunoassay utilizing a fluorescent readout (cAMP Gs HiRange Kit, PerkinElmer, Waltham, MA). […] When EC50 could not be calculated from the dose-response curve, EC50 is listed as not determined (ND).
Each entry below carries its recorded % EFF vs. 100 nM INSL3 (c).
The reply should contain only the number, in %.

>>> measured_value("O=C1Nc2ccc(-c3cccc(C(F)F)c3)cc2C(=O)N2CCN(C(=O)COc3ccc(OC(F)(F)F)cc3Br)C[C@@H]12")
52.68

Switching to the query record.
The recorded % EFF vs. 100 nM INSL3 (c) for entry Cc1cc(OC(F)(F)F)ccc1OCC(=O)N1CCN2C(=O)c3cc(-c4cccc(C(F)F)c4)ccc3NC(=O)[C@@H]2C1 equals 23.13

====

- target.of.assay: RXFP2 (Homo sapiens, UniProt Q8WXD0)
- Construct: expressed in transfected cells
- Sequence (Q8WXD0 whole entry): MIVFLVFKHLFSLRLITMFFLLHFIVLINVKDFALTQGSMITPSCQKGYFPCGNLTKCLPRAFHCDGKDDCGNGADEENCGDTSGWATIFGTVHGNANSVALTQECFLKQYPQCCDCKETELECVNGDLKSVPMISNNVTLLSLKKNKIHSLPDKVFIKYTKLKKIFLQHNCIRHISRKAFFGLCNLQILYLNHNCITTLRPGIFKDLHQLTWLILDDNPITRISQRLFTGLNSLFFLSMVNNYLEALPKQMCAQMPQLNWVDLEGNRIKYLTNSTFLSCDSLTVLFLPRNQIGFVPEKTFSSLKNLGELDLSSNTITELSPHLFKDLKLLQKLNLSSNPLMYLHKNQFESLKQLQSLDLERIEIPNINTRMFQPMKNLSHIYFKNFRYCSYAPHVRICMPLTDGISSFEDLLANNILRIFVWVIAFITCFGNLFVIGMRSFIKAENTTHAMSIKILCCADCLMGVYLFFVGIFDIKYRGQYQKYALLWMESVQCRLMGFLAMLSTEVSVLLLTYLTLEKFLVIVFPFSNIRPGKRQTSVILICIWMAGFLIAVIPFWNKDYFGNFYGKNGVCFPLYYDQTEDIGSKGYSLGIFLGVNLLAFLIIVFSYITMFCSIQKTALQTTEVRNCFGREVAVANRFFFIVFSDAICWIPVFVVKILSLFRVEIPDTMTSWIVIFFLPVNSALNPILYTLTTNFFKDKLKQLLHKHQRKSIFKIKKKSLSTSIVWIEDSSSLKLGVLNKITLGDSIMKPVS
- test.method.notes: HTRF cAMP assay in HEK293T cells stably expressing RXFP2 (HEK-RXFP2)
- Assay type: cell-based
- conditions: condition (b): 10,000 cells/well, IBMX 200 μM
Each entry below carries its recorded EC50.
The reply should contain only the number, in nM.

Past entries and their recorded results:
>>> measured_value("Cc1cc(OC(F)F)ccc1OCC(=O)N1CCN2C(=O)c3cc(-c4cccc(C(F)(F)F)c4)ccc3NC(=O)[C@@H]2C1")
236
>>> measured_value("O=C1Nc2ccc(-c3cc(Cl)cc(C(F)(F)F)c3)cc2C(=O)N2CCN(C(=O)COc3ccc(OC(F)(F)F)cc3Br)C[C@@H]12")
121
>>> measured_value("O=C1Nc2ccc(-c3cccc(C(F)(F)F)c3)cc2C(=O)N2CCN(C(=O)COc3ccc(C(F)(F)F)cc3Cl)C[C@@H]12")
9.7

The recorded EC50 for entry Cc1cc(OC(F)(F)F)ccc1OCC(=O)N1CCN2C(=O)c3cc(-c4cccc(C(F)(F)F)c4)ccc3NC(=O)[C@@H]2C1 equals 8.6

The recorded EC50 for entry O=C1Nc2ccc(-c3cc(C(F)(F)F)ccc3F)cc2C(=O)N2CCN(C(=O)COc3ccc(OC(F)(F)F)cc3Cl)C[C@@H]12 equals 12

The recorded EC50 for entry O=C1Nc2ccc(-c3cc(F)cc(C(F)(F)F)c3)cc2C(=O)N2CCN(C(=O)COc3ccc(C(F)(F)F)cc3Cl)C[C@@H]12 equals 48

The recorded EC50 for entry Cc1cc(OC(F)F)ccc1OCC(=O)N1CCN2C(=O)c3cc(-c4cc(C(F)(F)F)cc(C(F)(F)F)c4)ccc3NC(=O)[C@@H]2C1 equals 142

The recorded EC50 for entry O=C1Nc2ccc(-c3cccc(C(F)(F)F)c3)cc2C(=O)N2CCN(C(=O)COc3ccc(OC(F)(F)F)cc3Cl)C[C@@H]12 equals 15.6

The recorded EC50 for entry O=C1Nc2ccc(-c3cc(C(F)(F)F)ccc3F)cc2C(=O)N2CCN(C(=O)COc3ccc(OC(F)(F)F)cc3Cl)CC12 (racemic) equals 17.7

The recorded EC50 for entry O=C1Nc2ccc(-c3cc(C(F)(F)F)cc(C(F)(F)F)c3)cc2C(=O)N2CCN(C(=O)COc3ccc(OC(F)(F)F)cc3Cl)C[C@@H]12 equals 39.1
